Test system: MILI (PIWIL2) piRISC loaded with L1MC piRNA (26 nt);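 also: 1 nM active piRISC with 0.1 nM target library at 33 °C single turnover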
Measurement Description: pre-steady-state target cleavage rate (min^-1); guide: L1MC piRNA 5'p-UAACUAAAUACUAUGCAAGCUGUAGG; higher = faster piRNA-guided slicing of the target
Reported Conditions: auxiliary factor: 500 nM mouse GTSF1
Quick reference for pre-steady-state target cleavage rate among some sequences
Reported Metric: pre-steady-state target cleavage rate

Seq: UCCUGGAUGAGCAACCAUAGUAUUUAGUUA
Value Reported: 0.0437
--
Seq: UCCUGGUUGAGCUUGCAUAGUAUUUAGUAA
Value Reported: 0.196
--
Seq: UCCUGGUACAGCUAGCAUUGUAUUUAGUUA
Value Reported: 0.127
--
Seq: UCCUGGAACAGCUUGCAUAGUAUUUUGUAA
Value Reported: 0.0402
--
Seq: UCCUCCAACAGCUUGCAUACUAUUUAGUUA
Value Reported: 0.0905
--
Seq: UCCUGGAUGUCGAAGCAUAGUAUUUAUGUUA
Value Reported: 0.022
--
Seq: UCCUGGAUCAGCAACCAUAGUAUUUAGUAA
Value Reported: 0.0962
--
Seq: UCCUGCUAGAGCUUGCAUAGUAUUUUCAAA
Value Reported: 0.0124
--
Seq: UCCUGGAUCAGCUUGCAUAGUAUUUAGUUC [g2:g22:cont:t1C]
Value Reported: 0.235
--
Seq: UCCUGGAACACCUUGCAUAGUUUUUAGUUA
Value Reported: 0.0237
--
Seq: UCCUGGAUCAGCUUGCAAAGUAUUUUCAAA
Value Reported: 0.00923
--
Seq: UCCUGGGACAGCUUGCAUAGUAUUUAGUUA
Value Reported: 0.231
--
Seq: UCCUGGAUGACCUUGCAUAGUAUUUAGAUA
Value Reported: 0.115

---

System: MILI (PIWIL2) piRISC loaded with L1MC piRNA (26 nt);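 also: 1 nM active piRISC with 0.1 nM target library at 33 °C single turnover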
Measurement Description: pre-steady-state target cleavage rate (min^-1); guide: L1MC piRNA 5'p-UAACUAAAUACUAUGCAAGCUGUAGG; MIWI and MILI are mouse PIWI proteins and EfPiwi is from a freshwater sponge; tags in brackets are library labels; higher = faster piRNA-guided slicing of the target
Reported Conditions: auxiliary factor: none (no GTSF1)

Seq: UCCUCCUACAGCUUGCAUAGUGUUUAGUUA
pre-steady-state target cleavage rate: 0.00543

Seq: UCCUGCUACAGCUUCCAUUGUAUUUAGUUA
pre-steady-state target cleavage rate: 0.00322

Seq: UCCUGGAUCACCUUGCUUAGUAUUUAGUUA
pre-steady-state target cleavage rate: 0.008

Seq: UCCUGGAACAGCUUGCAUAGUAAUUAGUUA
pre-steady-state target cleavage rate: 0.00705

Seq: UCCUGCAACAGCUUGCAUAGUAUUUAGUUA
pre-steady-state target cleavage rate: 0.0107

Seq: UCCUGGAUGUCGAACGAUAGUUAAUAGUUA
pre-steady-state target cleavage rate: < 0.0001

Seq: UCCUGCUUGAGCUUGCAUAGUAUUUAGUAA
pre-steady-state target cleavage rate: 0.00365

Seq: UCCUGGAUGUGGUUGCAUUGUAUUUAGUUA
pre-steady-state target cleavage rate: 0.00721

Seq: UCCUGGAACAGGAAGCAUAGUAUUUAGUAA
pre-steady-state target cleavage rate: 0.00297

Seq: UCCUGGAUCAUGCUUGCAUAGUAUUUAGUUA
pre-steady-state target cleavage rate: 0.00983

Seq: UCCUGGUACUGCUUGCAAAGUAUUUAGUUA
pre-steady-state target cleavage rate: 0.00779

Seq: UCCUCCUACAGCUUGCCUAGUAUUUAGUUA
pre-steady-state target cleavage rate: 0.00736

Seq: UCCUGGAUGAGGUUGCAAAGUAUUUAGUUA
pre-steady-state target cleavage rate: 0.00826
